Property: TGI; scope: individual molecules
- Test system: SNB-75 CNS
- METHOD SUMMARY: NCI tumour cell line growth inhibition, 48 h
QUANTITY: TGI

In [3]: df
Out[3]:
                                   molecule  assay_result
0  N.N.N.N.N.O=S(=O)([O-])C(F)(F)F.O=S(=O)([O-])C(F)(F)F.[Os+8]       28.5 µM
1  Cc1nn(C(=O)c2ccncc2)c2c1C(c1cccc([N+](=O)[O-])c1)SC(N)=N2 (stereo not given)       > 10 µM
2  O=S(=O)(O)c1cc(O)c2c(O)c(N=Nc3cccc4ccccc34)c(S(=O)(=O)O)cc2c1      > 100 µM
3                           COC/N=C(/N)NC#N      > 100 µM
4  CC(=O)[CH-]C(=O)Nc1ccccc1.CC(=O)[CH-]C(=O)Nc1ccccc1.CC[O-].CC[O-].[Ti+4]      > 100 µM
5  NS(=O)(=O)c1cccc(-c2ccc3c(NC(=O)C4CC4)n[nH]c3c2)c1       > 25 µM
6  COc1ccc2c(c1)/C(=C\c1c[nH]c3ccc(OC)cc13)C(=O)N2       9.22 µM
7                C=CCC1(CC)C(=O)NC(=O)NC1=O      > 100 µM
8  Nc1ncnc2c1nnn2C1C=C(CO)C(O)C1O (stereo not given)     > 96.1 µM
9  O=c1c(O)cccn1CCCN(CCCn1cccc(O)c1=O)CCn1cccc(O)c1=O       88.2 µM

----------
- System: RXF 393 renal
- METHOD SUMMARY: NCI tumour cell line growth inhibition, 48 h
QUANTITY: log10 TGI (log10 of the value in µM)

>>> df
                                   compound  assay_result
0  COc1cc(/C=C2\Cc3cc(OC)c(OC)cc3C2=O)cc(OC)c1          1.76
1  C=C1C(=O)O[C@H]2[C@H]1CC/C(CNC(=O)/C=C/c1ccccc1)=C\CC[C@@]1(C)O[C@@H]21          0.33
2  CC(=O)OC(C)C(OC(C)=O)C(OC(C)=O)C(/C=C/C1CC=CC(=O)O1)OC(C)=O (stereo not given)          1.87
3  CCOC(=O)C1=C(C)N2C(=NC3=C(CCC/C3=C\c3ccc(Cl)cc3)C2c2ccc(Cl)cc2)S1 (stereo not given)          0.55
4  CC1(C)CCCCCCCCCC(C)(CCCCCCCCCCCCO)C1=O (stereo not given)          1.52
5     O=C(Nc1cnc(C(F)(F)F)cn1)c1cc(Cl)ccc1O         -0.04
6  CCC[CH2][Sn]([CH2]CCC)([O]C(=O)/C=C/c1ccccc1F)[O]C(=O)/C=C/c1ccccc1F         -0.02
7                    O=c1cccc(C#CC#CCCCO)o1          1.06
8  Cc1cc(C)nc(NS(=O)(=O)c2ccc(NC(=O)c3cccn4c(=O)c5ccccc5nc34)cc2)n1          1.83
9  Nc1ncccc1-c1nc2ccc(-c3ccccc3)nc2n1-c1ccc(C2(N)CCC2)cc1          0.21
